assay: Selectivity ratio of IC50 for PI3Kalpha to IC50 for mTOR
Label MET for high-side Ratio IC50 (at or above 70) and NOT MET for low-side Ratio IC50 (below it).

> print(dat)
                              line.notation  category
1  Cn1cc(/C=C2\Oc3ccc(NC(=O)Nc4cccnc4)cc3C2=O)c2c(N3CCC(C(=O)NCc4cccnc4)CC3)ccnc21       MET
2  CN1CCN(C(=O)C2CCN(c3ccnc4c3c(/C=C3\Oc5ccc(NC(=O)Nc6cccnc6)cc5C3=O)cn4C)CC2)CC1   NOT MET
3  Cn1cc(/C=C2\Oc3ccc(NC(=O)Nc4cccnc4)cc3C2=O)c2c(N3CCC(C(=O)N4CCCC4)CC3)ccnc21       MET

Consider the record given below.
Task item: Has Cn1cc(/C=C2\Oc3ccc(NC(=O)Nc4ccccc4)cc3C2=O)c2c(N3CC4CCC(C3)O4)ccnc21 a recorded Ratio IC50 greater than or equal to 70?
Reply: NOT MET
